The measurements presented in this section are drawn from patent US20240067748A1.

Listed here: items and their measured Top %.
Biological target: T1, human Trop2 on cells (human, UniProt P09758 27-323)
T1 construct: whole, on cells; also called hTrop2; 293T-human Trop2 cells
T1 sequence (looked up): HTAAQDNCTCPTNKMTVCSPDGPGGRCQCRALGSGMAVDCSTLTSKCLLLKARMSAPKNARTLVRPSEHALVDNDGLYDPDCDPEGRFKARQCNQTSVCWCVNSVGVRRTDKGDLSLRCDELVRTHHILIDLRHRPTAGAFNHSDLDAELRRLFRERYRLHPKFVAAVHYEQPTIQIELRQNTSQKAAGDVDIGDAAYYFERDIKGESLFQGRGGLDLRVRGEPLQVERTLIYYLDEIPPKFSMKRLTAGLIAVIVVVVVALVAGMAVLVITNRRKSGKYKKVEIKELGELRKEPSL
Experiment: flow cytometry on 293T-human Trop2 cells
Description: The cell density was determined, and the cells were resuspended to 1×10⁶ cells/mL in PBS. 100 μL of cell suspension was taken from each well and added to a 96 well V-bottom plate. The 96-well V-bottom plate was centrifuged at 1000 rpm for 5 min and washed once with PBS+0.5% BSA (VWR, #0332-100G). […] After 1 h, the cells were washed twice with PBS+0.5% BSA. […] The fluorescence intensity of the cells was analyzed using a FACS verse flow cytometer. […]
property-name: Top % (%)

| binder | measured |
| --- | --- |
| PR001155 (antibody, human IgG1, kappa, V domains shown, fully human IgG1/kappa; also called antibody No. (18)) VH: QVQLVQSGGGVVQPGRSLRLSCAASGFTFSHYGMHWVRQAPGKGLEWVAVIWYDGIKKYYVESVKGRFTISRDNSKNTLYLQMNRLRAEDTAVYYCARDGGFGELNYYGLDVWGQGTTVTVSS VL: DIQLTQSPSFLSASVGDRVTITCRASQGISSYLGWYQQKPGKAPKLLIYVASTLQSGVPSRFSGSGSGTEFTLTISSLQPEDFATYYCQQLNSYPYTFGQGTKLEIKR | 113 |
| PR001165 (antibody, human IgG1, kappa, V domains shown, fully human IgG1/kappa; also called antibody No. (26)) VH: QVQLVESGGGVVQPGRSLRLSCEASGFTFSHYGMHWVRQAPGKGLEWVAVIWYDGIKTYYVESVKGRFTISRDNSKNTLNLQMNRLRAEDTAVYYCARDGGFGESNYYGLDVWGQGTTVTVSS VL: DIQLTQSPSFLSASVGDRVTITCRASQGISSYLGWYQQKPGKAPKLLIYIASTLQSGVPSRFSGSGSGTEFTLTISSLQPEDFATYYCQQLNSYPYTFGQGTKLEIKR | 99.7 |
| PR001153 (antibody, human IgG1, kappa, V domains shown, fully human IgG1/kappa; also called antibody No. (16)) VH: QVQLQESGPGLVKPSGTLSLTCAVSGGSISSSNWWSWVRQPPGKGLEWIGEIYHDGSTDYNPSLKSRVIISVDKSKNQFSLKVRSVTAADTAVYYCARDNWGFDYWGQGTLVTVSS VL: EIVLTQFPGTLSLSPGERATLSCRSSQSVSSSYLAWYQQKPGQAPRLLISGASSRATGIPDRFSGSGSGTDFTLTISRLEPEDFAVYYCQQYGSSPRTFGQGTKVEIKR | 107 |
